Hi! I'm sharing some IC50 results obtained with hMC-3R (Homo sapiens).
Sequence (P41968 whole entry): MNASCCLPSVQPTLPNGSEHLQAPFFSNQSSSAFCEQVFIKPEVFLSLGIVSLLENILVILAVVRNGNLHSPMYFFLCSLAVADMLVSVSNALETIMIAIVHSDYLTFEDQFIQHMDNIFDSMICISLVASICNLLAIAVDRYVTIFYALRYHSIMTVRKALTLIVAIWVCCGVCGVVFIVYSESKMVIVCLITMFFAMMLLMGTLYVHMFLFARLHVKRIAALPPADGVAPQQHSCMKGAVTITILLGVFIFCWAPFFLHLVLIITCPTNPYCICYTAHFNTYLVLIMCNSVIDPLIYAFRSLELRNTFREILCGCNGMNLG
reportedEndpoint: IC50 (µM)

[
  {
    "molecule": "O=C(N[C@H](Cc1ccc(Cl)cc1)C(=O)N1CCN(c2ccccc2CN2CCCC2=O)CC1)C1CNC1 [WO030009850 Example 166, reference compound]",
    "targetOrTestSystem": "hMC-3R (Homo sapiens)",
    "quantitativeReadout": 19.2
  },
  {
    "molecule": "O=C(N[C@H](Cc1ccc(Cl)cc1)C(=O)N1CCC(c2ccccc2CN2CCCC2=O)CC1)C1CNC1 [WO030009847 Example 153, reference compound]",
    "targetOrTestSystem": "hMC-3R (Homo sapiens)",
    "quantitativeReadout": 5.2
  }
]

====

biological target: hMC-4R (Homo sapiens, UniProt P32245); construct: expressed in transfected cells; host or cells: HEK293; assay: Functional cellular cAMP assay (fluorescence polarization); format: cell-based; conditions: cAMP production compared to stimulation with NDP-alpha-MSH
Sequence (P32245 whole entry): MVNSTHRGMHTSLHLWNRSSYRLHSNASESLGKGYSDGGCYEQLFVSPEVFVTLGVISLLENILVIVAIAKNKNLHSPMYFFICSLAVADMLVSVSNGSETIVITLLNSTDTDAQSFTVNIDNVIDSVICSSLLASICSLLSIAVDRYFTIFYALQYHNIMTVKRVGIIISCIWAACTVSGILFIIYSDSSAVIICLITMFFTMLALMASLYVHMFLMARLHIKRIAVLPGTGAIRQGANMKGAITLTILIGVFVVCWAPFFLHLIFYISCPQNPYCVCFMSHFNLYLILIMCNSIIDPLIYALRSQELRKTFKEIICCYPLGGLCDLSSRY
reportedEndpoint: % activation (%)

[
  {
    "compound": "O=C(N[C@H](Cc1ccc(Cl)cc1)C(=O)N1CCN(c2ccccc2CN2CCCC2=O)CC1)[C@H]1Cc2ccccc2CN1 [Example 3]",
    "quantitativeReadout": 109
  },
  {
    "compound": "O=C(N[C@H](Cc1ccc(Cl)cc1)C(=O)N1CCC(c2ccccc2CN2CCCC2=O)CC1)[C@H]1Cc2ccccc2CN1 [Example 1]",
    "quantitativeReadout": 112
  },
  {
    "compound": "NC1c2ccccc2CCC1C(=O)N[C@H](Cc1ccc(Cl)cc1)C(=O)N1CCC(c2ccccc2CN2CCCC2=O)CC1 (single isomer, unassigned) [Example 2A]",
    "quantitativeReadout": 86
  }
]

====

molecular target: hMC-4R (Homo sapiens, UniProt P32245); experiment: Functional cellular cAMP assay (fluorescence polarization); conditions: HEK293 cells, cAMP production
pEC50: −log10 of the molar value.
Let's look at some molecules and their measured pEC50.
reportedEndpoint: pEC50

[
  {
    "molecule": "NC1c2ccccc2CCC1C(=O)N[C@H](Cc1ccc(Cl)cc1)C(=O)N1CCC(c2ccccc2CN2CCCC2=O)CC1 (single isomer, unassigned) [Example 2B]",
    "reportedEndpoint": "pEC50",
    "quantitativeReadout": 7.54
  },
  {
    "molecule": "O=C(N[C@H](Cc1ccc(Cl)cc1)C(=O)N1CCN(c2ccccc2CN2CCCC2=O)CC1)C1CNC1 [WO030009850 Example 166, reference compound]",
    "reportedEndpoint": "pEC50",
    "quantitativeReadout": 5.55
  },
  {
    "molecule": "O=C(N[C@H](Cc1ccc(Cl)cc1)C(=O)N1CCC(c2ccccc2CN2CCCC2=O)CC1)[C@H]1Cc2ccccc2CN1",
    "reportedEndpoint": "pEC50",
    "quantitativeReadout": 7.22
  },
  {
    "molecule": "O=C(N[C@H](Cc1ccc(Cl)cc1)C(=O)N1CCN(c2ccccc2CN2CCCC2=O)CC1)[C@H]1Cc2ccccc2CN1",
    "reportedEndpoint": "pEC50",
    "quantitativeReadout": 6.59
  },
  {
    "molecule": "NC1c2ccccc2CCC1C(=O)N[C@H](Cc1ccc(Cl)cc1)C(=O)N1CCC(c2ccccc2CN2CCCC2=O)CC1 (single isomer, unassigned) [Example 2A]",
    "reportedEndpoint": "pEC50",
    "quantitativeReadout": 7.00
  },
  {
    "molecule": "NC1c2ccccc2CCC1C(=O)N[C@H](Cc1ccc(Cl)cc1)C(=O)N1CCN(c2ccccc2CN2CCCC2=O)CC1 (single isomer, unassigned)",
    "reportedEndpoint": "pEC50",
    "quantitativeReadout": 6.74
  },
  {
    "molecule": "CS(=O)(=O)Nc1ccccc1N1CCN(C(=O)[C@@H](Cc2ccc(Cl)cc2)NC(=O)[C@H]2Cc3ccccc3CN2)CC1 [WO030009850 Example 1, reference compound]",
    "reportedEndpoint": "pEC50",
    "quantitativeReadout": 5.43
  },
  {
    "molecule": "O=C(N[C@H](Cc1ccc(Cl)cc1)C(=O)N1CCC(c2ccccc2CN2CCCC2=O)CC1)C1CNC1 [WO030009847 Example 153, reference compound]",
    "reportedEndpoint": "pEC50",
    "quantitativeReadout": 5.99
  }
]

All values here come from patent EP1538159A1.
